- EXPERIMENT: Inhibition of HCV NS5B deltaC RNA polymerase
- Set-up: species or system Hepacivirus hominis
Binary label based on IC50 with cut-off 0.03 µM: below gives MET, not below gives NOT MET.

>  <COMPOUND>
CN(C)C1CCN(C(=O)Cn2c(-c3ccc(Cl)cc3)c(C3CCCCC3)c3ccc(-c4noc(=O)[nH]4)cc32)CC1

>  <LABEL VALUE>
MET

$$$$
>  <COMPOUND>
CN1CCC(N(C)C(=O)Cn2c(-c3ccccc3)c(C3CCCCC3)c3ccc(-c4noc(=O)[nH]4)cc32)C1 (stereo not drawn)

>  <LABEL VALUE>
NOT MET

$$$$
>  <COMPOUND>
CN(C)C(=O)Cn1c(-c2ccccc2)c(C2CCCCC2)c2ccc(C(=O)NS(=O)(=O)Cc3ccccc3)cc21

>  <LABEL VALUE>
NOT MET

$$$$
>  <COMPOUND>
CCS(=O)(=O)NC(=O)c1ccc2c(C3CCCCC3)c(-c3ccccc3)n(CC(=O)N(C)C)c2c1

>  <LABEL VALUE>
NOT MET

$$$$
>  <COMPOUND>
CCS(=O)(=O)NC(=O)c1ccc2c(C3CCCCC3)c(-c3ccoc3)n(CC(=O)N(C)C)c2c1

>  <LABEL VALUE>
MET

$$$$
>  <COMPOUND>
CN1CCCC(CN(C)C(=O)Cn2c(-c3ccccc3)c(C3CCCCC3)c3ccc(-c4noc(=O)[nH]4)cc32)C1 (stereo not drawn)

>  <LABEL VALUE>
NOT MET

$$$$
>  <COMPOUND>
CN(C)C(=O)Cn1c(-c2ccccc2)c(C2CCCCC2)c2ccc(-c3noc(=O)[nH]3)cc21

>  <LABEL VALUE>
NOT MET

$$$$
>  <COMPOUND>
CCS(=O)(=O)NC(=O)c1ccc2c(C3CCCCC3)c(-c3ccc(OC)cc3)n(CC(=O)N(C)C)c2c1

>  <LABEL VALUE>
MET

$$$$
>  <COMPOUND>
CN(C)C1CCN(C(=O)Cn2c(-c3ccccc3F)c(C3CCCCC3)c3ccc(-c4noc(=O)[nH]4)cc32)CC1

>  <LABEL VALUE>
NOT MET

$$$$
>  <COMPOUND>
CCN(CC)C1CCN(C(=O)Cn2c(-c3ccoc3)c(C3CCCCC3)c3ccc(C(=O)NS(=O)(=O)N(C)C)cc32)CC1

>  <LABEL VALUE>
MET

$$$$
>  <COMPOUND>
CN(C)C(=O)Cn1c(-c2ccccc2)c(C2CCCCC2)c2ccc(C(=O)O)cc21

>  <LABEL VALUE>
NOT MET

$$$$
>  <COMPOUND>
CN(C)C(=O)Cn1c(-c2cccnc2)c(C2CCCCC2)c2ccc(-c3noc(=O)[nH]3)cc21

>  <LABEL VALUE>
NOT MET

$$$$
>  <COMPOUND>
CN(C)C(=O)Cn1c(-c2ccccc2)c(C2CCCCC2)c2ccc(C(=O)NS(=O)(=O)c3ccccc3)cc21

>  <LABEL VALUE>
MET

$$$$
